assay: Chemical stability assessed as formation of compound 2 in pH 7.4 phosphate buffer in presence of 5 mM GSH for 60 mins at 37 degC at 10 uM by UV chromatography; assay type: physicochemical; details: pH 7.4, 1 h
recorded metric: Stability

>>> print(df.to_string())
                                chem_smiles  recorded_metric  value_reported
0  Cc1cnc(NC(=O)[C@H](CC2CCCC2)n2ccccc2=O)cn1        Stability          Stable
1  Cc1cnc(NC(=O)[C@H](CC2CCCC2)n2ccc(Br)cc2=O)cn1        Stability          Stable
2  Cc1cnc(NC(=O)[C@H](CC2CCCC2)n2cccc(S(C)(=O)=O)c2=O)cn1        Stability          Stable
3  Cc1cnc(NC(=O)[C@H](CC2CCCC2)n2cc(S(C)(=O)=O)ccc2=O)cn1        Stability          Stable

###

experiment: Metabolic stability in human liver cytosol assessed as formation of compound at 10 uM in presence of 5 mM GSH and 1.3 mM NADPH by UV chromatography; assay type: ADME
recorded metric: Stability

                                chem_smiles  value_reported
0  Cc1cnc(NC(=O)[C@H](CC2CCCC2)n2cccc(S(C)(=O)=O)c2=O)cn1          Stable
1  Cc1cnc(NC(=O)[C@H](CC2CCCC2)n2ccc(S(C)(=O)=O)cc2=O)cn1        Unstable
2  Cc1cnc(NC(=O)[C@H](CC2CCCC2)n2ccccc2=O)cn1          Stable
3  Cc1cnc(NC(=O)[C@H](CC2CCCC2)n2ccc(Br)cc2=O)cn1        Unstable
4  Cc1cnc(NC(=O)[C@H](CC2CCCC2)n2cc(S(C)(=O)=O)ccc2=O)cn1          Stable

###

experiment: Metabolic stability in presence of human placental GST assessed as formation of compound at 10 uM in presence of 5 mM GSH and 1.3 mM NADPH by UV chromatography; assay type: ADME
recorded metric: Stability

In [3]: df
Out[3]:
                                chem_smiles  value_reported
0  Cc1cnc(NC(=O)[C@H](CC2CCCC2)n2ccc(Br)cc2=O)cn1        Unstable
1  Cc1cnc(NC(=O)[C@H](CC2CCCC2)n2cc(S(C)(=O)=O)ccc2=O)cn1          Stable
2  Cc1cnc(NC(=O)[C@H](CC2CCCC2)n2cccc(S(C)(=O)=O)c2=O)cn1          Stable
3  Cc1cnc(NC(=O)[C@H](CC2CCCC2)n2ccccc2=O)cn1          Stable
4  Cc1cnc(NC(=O)[C@H](CC2CCCC2)n2ccc(S(C)(=O)=O)cc2=O)cn1        Unstable
